- assayTarget: Follistatin-related protein 3 (Homo sapiens)
- assayRemarks: FSTL3 binders on small-molecule microarrays, primary screen, biochemical, small-molecule microarray, 635 nm fluorescence (AID 1105);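 note: score merges emission near 667 nm and signal to noise per printed spot across three slides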
- condition: FSTL3 binding, higher = more signal
metric: composite z-score
Numbers only.

molecule=O=C(O)[C@H](Cc1ccccc1)n1cc(-c2ccccn2)nn1 metric="composite z-score" readoutnumber=0.333

Look up composite z-score for the entries below, preserving their order.
1. COc1ccccc1CN1C(=O)c2ccccc2[C@@H](C(=O)NC(C)C)[C@@H]1c1ccc(CO)cc1
2. COc1cc(CO)cc(I)c1O[C@H]1C=C(C(=O)NCCO)C[C@@H](N(Cc2ccc(F)cc2)C(=O)C2CCCO2)[C@@H]1O (some centres undefined)
3. COCCOC(=O)N1C(=O)[C@@]2(c3cc(C#CCNC(N)=O)ccc31)[C@H](C(=O)N1CCCCCCC1)[C@H]1C(=O)O[C@H](c3ccccc3)[C@H](c3ccccc3)N1[C@@H]2c1ccc(O)cc1

*A*
1: 1.24; 2: 0.203; 3: 1.28

---

- assayRemarks: binders of probe aFST on microarray, primary screen, stem cell growth factor project, biochemical, small-molecule microarray, fluorescence 635/667 (AID 1086);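 note: score merges 667 nm fluorescence with signal-to-noise of each printed compound spot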
- condition: higher = more signal
Please enter condition met where composite z-score is greater than or equal to 0.3, and condition not met where it is lower.

*Q* Say whether COc1cc(CO)cc(I)c1O[C@H]1C=C(C(=O)NCCO)C[C@@H](N(CC2CCCCC2)C(=O)c2ccc(C(F)(F)F)cc2)[C@@H]1O shows composite z-score of 0.3 or more.
*A* condition not met

*Q* Check COCCOC(=O)N1C(=O)[C@@]2(c3cc(C#CC4(O)CCCCCC4)ccc31)[C@H](C(N)=O)[C@H]1C(=O)O[C@H](c3ccccc3)[C@H](c3ccccc3)N1[C@@H]2c1ccccc1OCCO too.
*A* condition not met

*Q* Okay, and CO[C@H]1O[C@H](CO)[C@@H](OC(=O)c2ccc(Br)cc2)[C@@H]2OC(=O)[C@@H](Cc3ccc4ccccc4c3)C/C=C/C[C@H](Cc3ccc4ccccc4c3)C(=O)O[C@@H]12 ?
*A* condition met

---

- assayTarget: NADPH oxidase 4 (Homo sapiens) (UniProt Q9NPH5)
- Sequence (Q9NPH5 whole entry, looked up): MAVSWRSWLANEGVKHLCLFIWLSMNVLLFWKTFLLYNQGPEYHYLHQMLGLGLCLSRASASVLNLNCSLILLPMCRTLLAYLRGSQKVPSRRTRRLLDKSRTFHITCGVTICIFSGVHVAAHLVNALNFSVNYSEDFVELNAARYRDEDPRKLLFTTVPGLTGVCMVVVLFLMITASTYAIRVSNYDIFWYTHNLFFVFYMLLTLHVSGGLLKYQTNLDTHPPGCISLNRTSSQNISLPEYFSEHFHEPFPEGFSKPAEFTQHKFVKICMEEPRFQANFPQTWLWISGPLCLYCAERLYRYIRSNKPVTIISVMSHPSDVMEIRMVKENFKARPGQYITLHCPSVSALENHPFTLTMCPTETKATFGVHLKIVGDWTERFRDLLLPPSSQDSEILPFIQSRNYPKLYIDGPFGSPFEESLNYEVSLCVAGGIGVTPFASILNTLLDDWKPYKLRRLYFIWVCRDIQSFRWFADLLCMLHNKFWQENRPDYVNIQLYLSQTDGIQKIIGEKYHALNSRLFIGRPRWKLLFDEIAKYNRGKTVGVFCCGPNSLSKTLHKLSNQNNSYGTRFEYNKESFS
- assayRemarks: NOX4-dependent H2O2 signal modulators, primary screen, NOX inhibitor project, cell-based, HEK293-NOX4, tetracycline-induced, Amplex Red fluorescence (AID 1160)
- condition: 45 min, higher = more signal, called active from +8 up or from −8 down
Kindly supply the reported z-score values for the records listed here.
Numbers only.

Guide cases for z-score, answers given:
compound="CC(C)C(CO)N1C(=O)[C@]2(C)C3C(=O)OCCC/C=C\\[C@H]3OC23C=CCN(c2ccc(Cl)cc2)C(=O)[C@@H]13 (stereo partly drawn)" metric=z-score readoutnumber=1.04
compound=O=c1cccc(-c2cccc(Cl)c2)o1 metric=z-score readoutnumber=-1.92
compound=CN(C)CCCNC(=O)[C@@H]1c2ccccc2C(=O)N(CC23CC4CC(CC(C4)C2)C3)[C@H]1c1ccc(CO)cc1 metric=z-score readoutnumber=-0.633
compound=COCC(=C=CC[C@H](O)c1ccc(OCCO)cc1)C[C@H](O)COCc1ccccc1 metric=z-score readoutnumber=-0.65
compound="CC1CC/C=C\\[C@H]2OC34C=CCN(c5ccc6ccccc6c5)C(=O)[C@H]3N(C(CO)C(C)C)C(=O)[C@@H]4C2C(=O)O1 (stereo partly drawn)" metric=z-score readoutnumber=-0.0631
compound="CN1C(=O)C2C=CC(C(O)Cc3ccccc3)N(N(c3ccccc3)c3ccccc3)C2C1=O (stereo not drawn)" metric=z-score readoutnumber=-0.198
compound=COc1ccc(CCNC(=O)[C@@]2(Sc3ccc(C)cc3)CC(=O)N(Cc3cc(C(F)(F)F)cc(C(F)(F)F)c3)[C@@H]2c2ccc(CO)cc2I)cc1 metric=z-score readoutnumber=-1.07
compound=CC(C)C(=C=CC[C@@H](O)c1ccccc1OCCO)C[C@@H](O)COCc1ccccc1 metric=z-score readoutnumber=0.489
compound=C=CCOC(=O)[C@H]1[C@@H]2C(=O)O[C@@H](c3ccccc3)[C@@H](c3ccccc3)N2[C@@H](c2ccc(OCCOC(=O)[C@H]3C[C@H]4C(=O)N[C@@H](CCCC[N+](C)(C)C)C(=O)N4[C@H]3c3cccc(OCCO)c3)cc2)[C@]12C(=O)Nc1ccc(I)cc12 metric=z-score readoutnumber=0.0287
compound=C=CCOC(=O)[C@@H]1[C@H]2C(=O)O[C@H](c3ccccc3)[C@H](c3ccccc3)N2[C@H](c2ccc(OCCOC(=O)[C@H]3C[C@H]4C(=O)N[C@@H](CCCCNC(C)=O)C(=O)N4[C@H]3c3cccc(OCCO)c3)cc2)[C@@]12C(=O)Nc1ccc(I)cc12 metric=z-score readoutnumber=0.898

Here are 7 compounds. What values of z-score were reported for them?
1. [N-]=[N+]=NCc1ccccc1C[C@]1(C(=O)NCC(O)CO)N=C(c2ccc(OCCCO)cc2)O[C@H]1c1ccccc1CN=[N+]=[N-] (stereo partly drawn)
2. CC(C)CNC(=O)[C@@H]1c2ccccc2C(=O)N(Cc2cc(F)cc(C(F)(F)F)c2)[C@H]1c1ccc(CO)cc1
3. COC(=O)[C@]1(CCS(=O)(=O)c2ccccc2)N=C(c2ccc(OCCCO)cc2)O[C@@H]1c1ccccc1CN=[N+]=[N-]
4. COc1ccc([Si](C)(C)[C@@H]2[C@@H](CC(=O)N3CCC[C@H]3CO)O[C@]3(C(=O)N(Cc4ccc(N5C(=O)c6cccc7cccc5c67)cc4)c4ccccc43)[C@H]2C)cc1
5. C[C@H]1C2=C3C(CC[C@H]4C(OCc5ccc(F)cc5C(F)(F)F)OC[C@](C)([C@@H]34)N(C(=O)OC(C)(C)C)C2)C2COC(=O)OCC21 (stereo partly drawn)
6. Cc1c(NC(=O)/C(C#N)=C/C=C/c2ccccc2[N+](=O)[O-])c(=O)n(-c2ccccc2)n1C
7. [N-]=[N+]=Nc1ccccc1C[C@@]1(C(=O)O)N=C(c2ccc(OCCCO)cc2)O[C@@H]1c1ccccc1

*A*
-2.19
0.967
-1.31
1.37
-2.17
0.0287
1.27

Consider the following items and state reported z-score for each.
1. C=CCNC(=O)[C@H]1[C@@H]2C(=O)O[C@@H](c3ccccc3)[C@@H](c3ccccc3)N2[C@@H](c2ccccc2OCCO)[C@]12C(=O)N(C(=O)OCCOC)c1ccc(C#CC3=CCCCC3)cc12
2. O=C1NCC(=O)N2[C@@H]1C[C@@H](C(=O)O)[C@H]2c1ccc(O)cc1
3. COc1ccc([Si](C)(C)[C@H]2[C@H](CCn3cc([C@H](O)c4ccccc4)nn3)O[C@@]3(C(=O)N(Cc4ccc(N5CCOC5=O)cc4)c4ccccc43)[C@@H]2C)cc1
4. Cc1ccc(F)cc1S(=O)(=O)N[C@@H]1CCN(Cc2ccc(OC(C)C)cc2)C1
5. CC(C)CN1C(=O)[C@@]2(Cc3ccccc31)c1ccccc1C(=O)N(Cc1ccccc1C(F)(F)F)[C@H]2c1ccc(CO)cc1
6. CC(C)CCC[C@@H](C)[C@H]1CC[C@@]2(C)C3=C(CC[C@]12C)[C@@]1(C)CC[C@H](OC(=O)c2ccc(Br)cc2)C(C)(C)C1CC3 (stereo partly drawn)

*A*
-0.678
-0.822
2.85
-0.987
0.771
0.175

Your task in this section: give z-score for each listed record.
1. COc1ccc(C(O)C2C=CC3C(=O)N(C)C(=O)C3N2N2CCCCC2)cc1 (stereo not drawn)
2. C#CCNC(=O)[C@H](Cc1ccccc1)NC(=O)[C@@H](N=[N+]=[N-])C(C)C
3. O=C(CS)NCCCCCCNC(=O)[C@H]1C[C@H]2C(=O)N[C@@H](Cc3ccccc3)C(=O)N2[C@H]1c1cccc(OCCO)c1
4. CN(C)C(=O)[C@@]1(Cc2ccccc2N=[N+]=[N-])COC(c2ccc(OCCCO)cc2)=N1
5. COC(=O)C1(Cc2ccccc2)C=C2C(=C(C(C)C)C(=O)C2C)CN1 (stereo not drawn)

*A*
[-0.744, -0.18, 0.441, -0.103, -5.34]

From: PubChem BioAssay
